Can you tell me self-aminoacylation for the items I'm about to list?
# Tested on: biotinyl-Trp-oxazolone
# Protocol summary: self-aminoacylation, catalytic enhancement (BWO) (fold over background); higher = more active; k-Seq, kA / k0A0; sequences stand for … in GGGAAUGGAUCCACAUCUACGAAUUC…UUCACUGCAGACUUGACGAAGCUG
Fewer inactive variants are shown than the library holds.
Could you keep your reply to the number by itself?

Looking up AUUCACCUACGUCAGCGGGUG [Fam2.2 aminoacylation ribozyme variant] , I found its self-aminoacylation recorded as 4.14

Form field self-aminoacylation, entry CUACUUGAAACAAUCGGGCUG [Fam1A.1 aminoacylation ribozyme variant] : 2.37

Sure, the documented self-aminoacylation for AUUAGCCUGGUCAUCGGGUGA [Fam2.1 aminoacylation ribozyme variant] is 13.4

Briefly, self-aminoacylation measured for AUUCACGUAAGUCAUCGGGUG [Fam2.2 aminoacylation ribozyme variant] : 13.3

get_value(item= CUUACCCUGGUCAUCGAUUGA [Fam2.1 aminoacylation ribozyme variant] , readout=self-aminoacylation) returns 1.34

The measured self-aminoacylation associated with GUUACCCUGGUCAUCGAGAGA [Fam2.1 aminoacylation ribozyme variant] reads 3.07

Per the record, AACUUUCCUAAUAGUCGCAAG [Fam3.1 aminoacylation ribozyme variant] has self-aminoacylation of 1.72

// self-aminoacylation value for CCACACUUCAAGCAAUCCGGC [Fam1B.1 aminoacylation ribozyme variant] : 2.1

For AUUACCCUGGGAAUCGAGUGA [Fam2.1 aminoacylation ribozyme variant] the sequence record lists self-aminoacylation as 4.59

----------
# Tested on: biotinyl-Trp-oxazolone
# Protocol summary: self-aminoacylation, catalytic enhancement (BWO) (fold over background); higher = more active; k-Seq, kA / k0A0; sequences stand for … in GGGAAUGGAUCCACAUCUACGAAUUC…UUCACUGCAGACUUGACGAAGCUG
This sample holds only a part of the variants without activity.
Would you kindly list self-aminoacylation for each of these sequences?
Just the number, please, no unit after it.

CUAGCUCAAACAAUCGGUCUG [Fam1A.1 aminoacylation ribozyme variant] yielded self-aminoacylation of 3.09

Summary for this sequence, CUACUUAAAACAGUCGGUCUG [Fam1A.1 aminoacylation ribozyme variant] : self-aminoacylation is 0.454

Record CCACACUUCAAGCAAUCCGAC [Fam1B.1 aminoacylation ribozyme variant] . Reported self-aminoacylation: 0.28

// field: self-aminoacylation; key: CCACACAUCAAGCAACCGGUC [Fam1B.1 aminoacylation ribozyme variant] ; value = 1.14

----------
# Tested on: biotinyl-Met-oxazolone
# Protocol summary: self-aminoacylation, catalytic enhancement (BMO) (fold over background); higher = more active; k-Seq, kA / k0A0; sequences stand for … in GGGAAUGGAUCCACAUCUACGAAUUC…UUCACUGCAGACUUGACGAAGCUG
This sample holds only a part of the variants without activity.
Assign class by self-aminoacylation: not lower than 3 means condition met; lower than 3 means condition not met.

Query: Say whether AUUCACCUCGGUCGUCGGGUG [Fam2.2 aminoacylation ribozyme variant] shows self-aminoacylation of 3 or more.
Reply: condition not met

Query: Kindly determine if self-aminoacylation recorded for AGUACCCUGCUCAUCGAGUGA [Fam2.1 aminoacylation ribozyme variant] is above or exactly 3.
Reply: condition not met

Query: Hi team, for AAUCACCUAGGUCAUCGGGGG [Fam2.2 aminoacylation ribozyme variant] , is the recorded self-aminoacylation at or above 3?
Reply: condition met

Query: Hello, I need to know if CUACUUGAUACAAUCGGUCUG [Fam1A.1 aminoacylation ribozyme variant] has measured self-aminoacylation not below 3. Thanks!
Reply: condition not met

Query: Confirm if self-aminoacylation reported for the sequence AAGCUUGCUAAUAGUCGCAAC [Fam3.1 aminoacylation ribozyme variant] is 3 or above.
Reply: condition not met

Query: Answer whether self-aminoacylation of AUUACCCUGGUAAUAGAGUGA [Fam2.1 aminoacylation ribozyme variant] is greater than or equal to 3.
Reply: condition met

Query: Exam item: decide whether the reported self-aminoacylation for AUUACCCUGACCAUCGAGUGA [Fam2.1 aminoacylation ribozyme variant] is at least 3.
Reply: condition met

Query: Does AUUCACAUAGGCCAUCGGGUG [Fam2.2 aminoacylation ribozyme variant] have a reported self-aminoacylation of at least 3?
Reply: condition met

Query: Threshold query (self-aminoacylation >= 3) on CUACUUCUAACAAGCGGUCUG [Fam1A.1 aminoacylation ribozyme variant]
Reply: condition not met

Query: Given AGGUUUGCUAAUAGCCGCAAG [Fam3.1 aminoacylation ribozyme variant] , state whether its self-aminoacylation is at least 3.
Reply: condition not met

Query: Check this sequence for self-aminoacylation at or above 3: AACUUUCCUAAUAGUCGCAAG [Fam3.1 aminoacylation ribozyme variant]
Reply: condition not met

Query: Quick check: does AUUCAACUAGGUCAUCGGCUG [Fam2.2 aminoacylation ribozyme variant] have self-aminoacylation greater than or equal to 3?
Reply: condition not met

Query: Has CCAAACUUCAAGCAAUCGGUG [Fam1B.1 aminoacylation ribozyme variant] a recorded self-aminoacylation greater than or equal to 3?
Reply: condition met

Query: Dear colleague, could you confirm whether AUUCACCUAGCUCAUCGGGGG [Fam2.2 aminoacylation ribozyme variant] has self-aminoacylation at or above 3?
Reply: condition not met

Query: In plain terms: is recorded self-aminoacylation at least 3 for AUUCACUUAGGUGAUCGGGUG [Fam2.2 aminoacylation ribozyme variant] ?
Reply: condition not met

Query: Item AUUACCGUGGUCAUCGAGUGA [Fam2.1 aminoacylation ribozyme variant] with self-aminoacylation of 3 or above?
Reply: condition met

Query: Does self-aminoacylation meet or surpass 3 for AUUUCCCUGGUCAUCGUGUGA [Fam2.1 aminoacylation ribozyme variant] ?
Reply: condition met

Query: Dear colleague, could you confirm whether AACUUUGCUACUAGUCGCAAG [Fam3.1 aminoacylation ribozyme variant] has self-aminoacylation at or above 3?
Reply: condition not met

Origin of measurements: the supplement of paper PMC9233669
